Molecular target: B1R receptor of the rat (rB1R) (Rattus norvegicus)
Construct: expressed in transfected cells; host or cells: CHO K1 cells (Chinese hamster ovary), stably transfected
Sequence (P97583 whole entry): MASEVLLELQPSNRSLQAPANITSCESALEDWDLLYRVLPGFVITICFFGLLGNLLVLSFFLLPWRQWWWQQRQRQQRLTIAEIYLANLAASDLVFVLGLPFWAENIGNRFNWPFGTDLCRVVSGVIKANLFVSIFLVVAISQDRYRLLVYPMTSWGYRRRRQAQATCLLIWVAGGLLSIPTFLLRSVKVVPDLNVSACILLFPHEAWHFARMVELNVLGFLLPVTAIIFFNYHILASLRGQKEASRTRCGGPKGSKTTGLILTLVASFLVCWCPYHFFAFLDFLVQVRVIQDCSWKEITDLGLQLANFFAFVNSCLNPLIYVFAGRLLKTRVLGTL
Assay: Functional FLIPR Ca2+ assay on the bradykinin 1 receptor, rat (rB1R CHO K1 cells)
Type: cell-based
Conditions: test substance 10 μM; CHO K1 cells transfected with rat B1R gene; agonist Des-Arg9-bradykinin at EC80; % inhibition compared with maximum achievable inhibition; read-out: B1R antagonism, rat [10 μM] % inhibition
measured parameter: inhibition at 10 µM (%)

Example entries and their recorded answers appear below.
[
  {
    "molecule": "O=C(CC1CCCCN1S(=O)(=O)c1cccc(C(F)(F)F)c1)N1CCc2sccc2C1c1ccncc1 (stereo not drawn) [Example 54]",
    "measured parameter": "inhibition at 10 µM",
    "unit spec": "%",
    "reported value": 101
  },
  {
    "molecule": "Cc1cccc(Cl)c1S(=O)(=O)N(CCOCC(=O)N1CCc2sc(CN3CCCCC3)cc2C1)C1CC1 [Example 60]",
    "measured parameter": "inhibition at 10 µM",
    "unit spec": "%",
    "reported value": 106
  },
  {
    "molecule": "COc1cc(C)c(S(=O)(=O)N2CCCCC2COCC(=O)N2CCc3onc(CN4CCCCC4)c3C2c2ccccc2)c(C)c1 (stereo not drawn) [Example 126]",
    "measured parameter": "inhibition at 10 µM",
    "unit spec": "%",
    "reported value": 104
  },
  {
    "molecule": "CN1CCN(Cc2cc3c(s2)CCN(C(=O)CCCC2CCCCN2S(=O)(=O)c2ccc4ccccc4c2)C3)CC1 (stereo not drawn) [Example 75]",
    "measured parameter": "inhibition at 10 µM",
    "unit spec": "%",
    "reported value": 103
  },
  {
    "molecule": "COc1cc(C)c(S(=O)(=O)N2CCCCC2COCC(=O)N2CCc3sccc3C2c2ccncc2)c(C)c1 (stereo not drawn) [Example 36]",
    "measured parameter": "inhibition at 10 µM",
    "unit spec": "%",
    "reported value": 100
  }
]

A: COc1cc(C)c(S(=O)(=O)N2CCCCC2COCC(=O)N2CCc3sccc3C2c2ccccc2C)c(C)c1 (stereo not drawn) [Example 12]
B: O=C(C[C@@H](NS(=O)(=O)c1ccc2ccccc2c1)c1ccccc1)N1CCc2sccc2C1c1ccc(F)cc1 (stereo partly drawn) [Example 21]
Decide: A or B , by lowest recorded inhibition at 10 µM. Kindly state the label of the option you pick.
B
(B: 70%, A: 104%)
